biological target: EHMT1 (Homo sapiens, UniProt Q9H9B1); assay: EHMT1 enzyme assay on peptide substrate (EHMT1 PEP); format: biochemical; conditions: Table III; read-out: EHMT1 PEP (IC50 μM)
Sequence (Q9H9B1 whole entry, species assumed): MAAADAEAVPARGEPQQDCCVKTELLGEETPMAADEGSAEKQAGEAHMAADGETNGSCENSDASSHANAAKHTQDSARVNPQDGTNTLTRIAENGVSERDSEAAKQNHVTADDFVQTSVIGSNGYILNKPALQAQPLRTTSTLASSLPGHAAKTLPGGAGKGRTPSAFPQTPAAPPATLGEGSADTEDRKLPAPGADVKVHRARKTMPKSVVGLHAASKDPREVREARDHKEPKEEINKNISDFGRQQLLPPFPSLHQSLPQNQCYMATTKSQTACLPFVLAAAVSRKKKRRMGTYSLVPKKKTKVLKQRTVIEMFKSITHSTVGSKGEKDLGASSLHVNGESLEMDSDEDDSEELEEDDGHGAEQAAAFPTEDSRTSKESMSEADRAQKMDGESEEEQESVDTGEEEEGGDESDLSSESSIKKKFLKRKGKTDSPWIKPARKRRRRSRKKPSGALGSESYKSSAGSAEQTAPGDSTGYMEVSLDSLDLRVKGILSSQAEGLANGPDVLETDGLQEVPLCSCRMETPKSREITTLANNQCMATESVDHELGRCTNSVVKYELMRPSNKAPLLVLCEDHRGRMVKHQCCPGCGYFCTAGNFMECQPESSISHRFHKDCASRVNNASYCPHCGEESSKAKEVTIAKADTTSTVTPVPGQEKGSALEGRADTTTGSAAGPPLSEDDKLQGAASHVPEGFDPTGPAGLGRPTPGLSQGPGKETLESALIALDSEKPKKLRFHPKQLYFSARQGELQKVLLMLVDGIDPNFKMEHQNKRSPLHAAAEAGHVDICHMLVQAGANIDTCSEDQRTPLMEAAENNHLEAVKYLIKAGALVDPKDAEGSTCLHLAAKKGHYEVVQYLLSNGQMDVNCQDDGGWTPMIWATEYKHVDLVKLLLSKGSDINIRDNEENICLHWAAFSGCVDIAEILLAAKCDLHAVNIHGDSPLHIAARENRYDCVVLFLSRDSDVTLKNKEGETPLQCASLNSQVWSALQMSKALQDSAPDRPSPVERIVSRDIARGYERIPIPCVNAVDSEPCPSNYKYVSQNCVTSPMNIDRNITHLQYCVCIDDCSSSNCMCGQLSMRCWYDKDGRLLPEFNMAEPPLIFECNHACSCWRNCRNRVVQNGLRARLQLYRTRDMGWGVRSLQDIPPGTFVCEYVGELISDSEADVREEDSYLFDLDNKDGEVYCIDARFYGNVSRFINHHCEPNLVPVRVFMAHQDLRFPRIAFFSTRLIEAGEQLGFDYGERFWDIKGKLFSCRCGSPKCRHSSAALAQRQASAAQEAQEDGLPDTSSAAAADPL
PROPERTY LABEL: IC50

// query Look up IC50: CNc1cc(C)nc(Nc2ccc(OC)c(OC[C@H]3C[C@@H](N(C)C)C3)c2)n1
// result 0.1 to 1 µM

// query Report IC50 for CNc1ccnc(Nc2ccc3c(c2)C(=O)N(CCN2CCCC2)CC3)n1 please.
// result > 10 µM

// query Which measured IC50 value corresponds to CCOc1ccc(Nc2nc(C)cc(NC)n2)cc1OCCCN1CCCC1 ?
// result > 10 µM

// query // lookup IC50 for CNc1ccnc(Nc2ccc(OC)c(OCCCN3CCC3C)c2)n1 (stereo not drawn)
// result 0.1 to 1 µM

// query Value lookup for IC50; key = CCN1CCC(COc2cc(Nc3nccc(NC)n3)ccc2OC)C1 (stereo not drawn)
// result 0.1 to 1 µM

// query # lookup: IC50 of CCOc1ccc(Nc2nccc(NC)n2)cc1OCCCN1CCCC1
// result > 10 µM

---

I'd be grateful if you could share measured IC50 for these entries.
Target: EHMT2 (Homo sapiens, UniProt Q96KQ7)
Construct: host or cells: MDA-MB-231
Sequence (Q96KQ7 1-1210): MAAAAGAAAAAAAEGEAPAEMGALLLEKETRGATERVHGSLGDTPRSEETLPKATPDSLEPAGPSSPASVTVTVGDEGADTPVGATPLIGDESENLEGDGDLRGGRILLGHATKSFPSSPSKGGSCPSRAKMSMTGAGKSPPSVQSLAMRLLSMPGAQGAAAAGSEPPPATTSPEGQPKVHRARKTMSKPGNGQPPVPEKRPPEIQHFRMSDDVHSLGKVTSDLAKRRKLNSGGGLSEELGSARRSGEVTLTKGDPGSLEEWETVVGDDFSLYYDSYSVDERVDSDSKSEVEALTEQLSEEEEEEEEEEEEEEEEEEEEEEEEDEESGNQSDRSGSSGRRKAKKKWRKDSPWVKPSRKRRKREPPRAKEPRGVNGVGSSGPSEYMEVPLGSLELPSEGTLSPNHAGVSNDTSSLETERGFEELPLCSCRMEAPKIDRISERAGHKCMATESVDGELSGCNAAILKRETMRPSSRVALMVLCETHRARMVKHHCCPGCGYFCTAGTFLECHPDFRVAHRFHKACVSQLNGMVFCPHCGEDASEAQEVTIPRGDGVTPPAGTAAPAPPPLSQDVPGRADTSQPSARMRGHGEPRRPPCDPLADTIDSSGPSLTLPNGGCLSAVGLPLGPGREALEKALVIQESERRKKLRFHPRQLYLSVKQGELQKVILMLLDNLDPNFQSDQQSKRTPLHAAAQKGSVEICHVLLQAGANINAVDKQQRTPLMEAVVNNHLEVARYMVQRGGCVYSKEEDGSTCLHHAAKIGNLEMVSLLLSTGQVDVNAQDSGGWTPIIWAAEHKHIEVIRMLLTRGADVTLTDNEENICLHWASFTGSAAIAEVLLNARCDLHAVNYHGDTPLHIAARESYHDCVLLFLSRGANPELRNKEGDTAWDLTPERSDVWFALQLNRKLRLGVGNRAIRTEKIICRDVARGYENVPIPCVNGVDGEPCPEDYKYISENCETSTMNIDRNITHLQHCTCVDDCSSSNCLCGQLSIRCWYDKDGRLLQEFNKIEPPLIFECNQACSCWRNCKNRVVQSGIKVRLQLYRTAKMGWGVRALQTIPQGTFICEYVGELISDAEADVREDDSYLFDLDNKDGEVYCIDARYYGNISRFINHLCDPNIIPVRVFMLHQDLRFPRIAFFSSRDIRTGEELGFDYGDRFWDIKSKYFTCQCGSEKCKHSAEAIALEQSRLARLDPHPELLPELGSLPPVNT
Test: MDA-MB-231 H3K9me2 in-cell Western assay (EHMT2 ICW)
Assay type: cell-based
Conditions: H3K9me2 in-cell Western, MDA-MB-231 cells; read-out: EHMT2 ICW (IC50 μM)

// query Find the recorded IC50 belonging to CNc1ccnc(NC2(C)CCCNC2)n1 (centres unmarked) [Compound 546] and report it.
// result > 10 µM

// query Name the reported IC50 value associated with the compound CCCCN1CCCC(C)(Nc2nccc(NC)n2)C1 (centres unmarked) [Compound 549]
// result > 10 µM

// query Record request: IC50 value, item COc1cnc(Nc2nc(C)cc3[nH]ccc23)cc1OC[C@@H]1CCN(C2CC2)C1 [Compound 495]
// result 0.1 to 1 µM

// query Tell me the measured IC50 of COc1cnc(Nc2nc(C)cc3[nH]c(C)cc23)cc1OCCCN1CCCC1 [Compound 485] , please.
// result 0.1 to 1 µM

// query Consider the compound shown here: CNc1ccnc(NC2CCNCC2)n1 [Compound 542] What is its recorded IC50?
// result > 10 µM

// query Consider the compound shown here: COc1cc2c(C3CCN(C)CC3)nc(NC3CCCC3)nc2cc1OCCCN1CCCC1 [Compound 529] What is its recorded IC50?
// result 0.1 to 1 µM

// query // returns reported IC50 for input CNc1cc(C)nc(Nc2ccc(OC)c(OC[C@@H]3CCNC3)c2)n1 [Compound 600]
// result < 0.1 µM

// query What does the data say about its IC50? Entry: CNc1ccnc(N[C@@H]2CC[C@H](N)C2)n1 [Compound 548]
// result > 10 µM

// query For CCn1nc(Nc2nccc3[nH]ccc23)cc1COCCN1CCCC1 [Compound 471] , what is its reported IC50?
// result > 10 µM

// query Give the measured IC50 of CCCCN1CCC(C)(Nc2nccc(NC)n2)CC1 [Compound 550] .
// result > 10 µM

// query Field request: IC50 | item: CNc1cc(C)nc(Nc2ccc(OC)c(OCC3CCN(CCO)C3)c2)n1 (centres unmarked) [Compound 461]
// result 0.1 to 1 µM

---

target: EHMT1 (Homo sapiens, UniProt Q9H9B1); assay: EHMT1 enzyme assay on peptide substrate (EHMT1 PEP); assay type: biochemical; conditions: Table VI; read-out: EHMT1 PEP IC50
pIC50: −log10 of the molar value.
PROPERTY LABEL: pIC50

// query So what does the record say about pIC50 for CNc1cc(C2CCN(CC(F)(F)F)CC2)c2cc(OC)c(OCCCN3CCCC3)cc2n1 [Compound 833] ?
// result > 7.00

// query Any idea what pIC50 was measured for COc1cc2c(C)cc(N3CCNCC3)nc2cc1OCCCN1CCCC1 [Compound 738] ?
// result 6.00 to 7.00

// query Record request: pIC50 value, item CNc1cc(C)nc(Nc2ccc(OC)c(C#CC3CCCN3)c2)n1 (centres unmarked) [Compound 846]
// result > 7.00

// query Give the measured pIC50 of CNc1cc(C)nc(Nc2ccc(OC)c(CNCCN3CCC3)c2)n1 [Compound 965] .
// result > 7.00

// query State the recorded pIC50 for this entry: CNc1cc(C)nc(Nc2cc(OC[C@@H](O)CN3CCCC3)c(OC)cn2)n1 [Compound 885]
// result 5.00 to 6.00

// query # input compound: CCN1CC([C@@H](C)Oc2cc(Nc3nc(C)cc(NC)n3)ccc2OC)C1 [Compound 687] ; wanted: its pIC50
// result 5.00 to 6.00

// query For the compound shown here, COc1cc(N(C)C2CCOCC2)ncc1OCC1CCNC1 (centres unmarked) [Compound 808] , give the reported pIC50.
// result 5.00 to 6.00

// query Could you tell me which pIC50 is on file for CC(C)N1CC[C@@H](COc2cnc(N(C)C3CCNCC3)nc2)C1 [Compound 637] ?
// result < 5.00

// query Requested field: pIC50. Item: CNc1cc(C)nc(Nc2cnc(OC)c(CNCCN3CCCC3)c2)n1 [Compound 1031]
// result > 7.00

// query GET /values?readout=pIC50&item= CNc1cc(C)nc(Nc2ccc(OC)c(CNCCN3CCCC3)c2)n1 [Compound 644]
// result > 7.00

// query Name the reported pIC50 value associated with the compound CNc1cc(C)nc(Nc2cnc(OC)c(OC[C@H](O)CN3CCC3)c2)n1 [Compound 963]
// result > 7.00

// query Would you kindly share the measured pIC50 for COc1cc2c(C)nc(N3CCNCC3)nc2cc1OCCCN1CCCC1 [Compound 739] ?
// result < 5.00

// query Which pIC50 value is on record for COc1cc2c(C3CCN(C)CC3)cc(C)nc2cc1OCCCN1CC[C@H](F)C1 [Compound 741] ?
// result 6.00 to 7.00

// query Quick one: pIC50 of COc1cc2c(C3CCN(C)CC3)cc(N3CCCC3)nc2cc1OCCCN1CCCC1 [Compound 625] ?
// result > 7.00

// query pIC50 lookup needed for CNc1cc(C)nc(Nc2ccc(OC)c(CN[C@@H]3CCNC3)c2)c1 [Compound 814] , thanks.
// result 5.00 to 6.00

// query Requested field: pIC50. Item: CCN1CCO[C@@H](COc2cc(Nc3nccc(NC)n3)ccc2OC)C1 [Compound 932]
// result 5.00 to 6.00

// query pIC50 for COc1cc2c(C3CCN(C)CC3)cc(-c3cn[nH]c3)nc2cc1OCCCN1CCCC1 [Compound 677] ?
// result > 7.00
